- TARGET_DESC: recombinant human neutral endopeptidase (NEP, EC 3.4.24.11) (Homo sapiens)
- Sequence (P08473 whole entry): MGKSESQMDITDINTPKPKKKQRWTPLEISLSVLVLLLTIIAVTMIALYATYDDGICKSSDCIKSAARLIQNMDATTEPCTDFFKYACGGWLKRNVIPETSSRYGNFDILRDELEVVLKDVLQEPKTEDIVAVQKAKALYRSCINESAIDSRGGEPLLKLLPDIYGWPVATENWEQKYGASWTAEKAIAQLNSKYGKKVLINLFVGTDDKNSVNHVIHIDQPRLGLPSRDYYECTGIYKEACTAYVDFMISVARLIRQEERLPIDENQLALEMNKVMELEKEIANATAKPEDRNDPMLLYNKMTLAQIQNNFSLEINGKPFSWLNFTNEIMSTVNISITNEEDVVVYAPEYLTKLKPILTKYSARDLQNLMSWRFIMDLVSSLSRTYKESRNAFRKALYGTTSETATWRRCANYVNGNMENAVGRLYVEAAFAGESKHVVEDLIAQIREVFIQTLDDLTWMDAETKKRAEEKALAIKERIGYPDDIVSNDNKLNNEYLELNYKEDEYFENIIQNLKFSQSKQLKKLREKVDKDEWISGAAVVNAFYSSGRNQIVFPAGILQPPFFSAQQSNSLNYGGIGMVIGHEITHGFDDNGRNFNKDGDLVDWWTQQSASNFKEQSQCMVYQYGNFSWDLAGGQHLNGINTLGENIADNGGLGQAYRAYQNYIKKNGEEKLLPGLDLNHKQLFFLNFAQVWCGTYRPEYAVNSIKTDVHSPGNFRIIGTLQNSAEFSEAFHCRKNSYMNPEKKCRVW
- EXPERIMENT_DESCRIPTION: in vitro inhibition of recombinant human neutral endopeptidase (fluorescence lifetime assay)
- EXPERIMENTAL_SETUP: 1 hour pre-incubation, read after 1 hour at room temperature, pH 7.4, substrate Cys(PT14)-Arg-Arg-Leu-Trp-OH 0.7 μM
- Text: The activity of a compound according to the present invention can be assessed by the following in vitro & in vivo methods and/or by the following in vitro & in vivo methods well-described in the art. See A fluorescence lifetime-based assay for protease inhibitor profiling on human kallikrein 7 Doering K, Meder G, Hinnenberger M, Woelcke J, Mayr L M, Hassiepen U Biomol Screen. 2009 January; 14(1):1-9. […]
pIC50: −log10 of the molar value.
QUANTITY_NAME: pIC50

In [3]: df
Out[3]:
                                item_smiles  reading
0  O=C(O)CC1(C(=O)N[C@@H](Cc2ccc(-c3ccccc3)cc2)c2nnn[nH]2)CCCC1     8.00
1  O=C(O)CC1(C(=O)N[C@@H](Cc2ccc(-c3ccccc3)cc2)C(=O)O)CCCC1     7.82
2  O=C(O)CC1(C(=O)N[C@@H](Cc2ccc(-c3ccccc3Cl)cc2)c2nnn[nH]2)CCCC1     8.22
3  Cc1cccc(-c2ccc(C[C@H](NC(=O)C3(CC(=O)O)CCCC3)c3nnn[nH]3)cc2)c1     7.40
4  O=C(O)CC1(C(=O)N[C@@H](Cc2ccc(-c3ccccc3)cc2)C(=O)N2CCC[C@H]2C(=O)O)CCCC1     7.92
5  COc1cccc(-c2ccc(C[C@H](NC(=O)C3(CC(=O)O)CCCC3)c3nnn[nH]3)cc2)c1     7.96
